# IC50 listing for each entry below
# Tested on: recombinant autotaxin (Homo sapiens)
# Assay notes: Autotaxin assay (Amplex Red, LPC substrate)
# Condition info: 75 μM LPC, Amplex Red fluorescence, ten 1:3 dilutions starting at 30 μM

IC50 reading for COc1ccc(CNc2ncc3c(Nc4ccc(OC)c(OC)c4)nccc3n2)cc1 : < 30 µM

IC50 reading for Clc1ccccc1CNc1ncc2c(NCCc3cccnc3)nccc2n1 : < 30 µM

IC50 reading for O=C(C1CCN(c2nccc3nc(NCc4ccccc4Cl)ncc23)CC1)N1CCCC1 : < 5 µM

IC50 reading for O=C(NC1CC1)C1CCCN(c2nccc3nc(NCc4ccccc4Cl)ncc23)C1 (stereo not drawn) : < 5 µM

IC50 reading for O=C(c1ccco1)N1CCN(c2nccc3nc(NCc4ccccc4Cl)ncc23)CC1 : < 5 µM

====

# Tested on: recombinant autotaxin (Homo sapiens)
# Assay notes: Autotaxin assay (Amplex Red, LPC substrate)
# Condition info: 75 μM LPC, Amplex Red fluorescence, ten 1:3 dilutions starting at 30 μM
pIC50: −log10 of the molar value.
# pIC50 listing for each entry below

Would you please look over these solved cases?
CCN(CC)CCCNC(=O)C1CCN(c2nccc3nc(NCc4ccccc4Cl)ncc23)CC1; > 5.00
Clc1ccccc1CNc1ncc2c(NCc3cccnc3)nccc2n1; > 4.52
COc1ccc(CNc2ncc3c(Nc4ccc(C#N)cc4)nccc3n2)cc1; > 4.52
CC(C)CNc1nccc2nc(NCc3ccc(F)cc3)ncc12; > 4.52

Query molecule follows.
pIC50 reading for COc1ccc(CNc2ncc3c(Nc4ccc(F)cc4C)nccc3n2)cc1 : > 5.00

====

# Tested on: recombinant autotaxin (Homo sapiens)
# Assay notes: Autotaxin assay (Amplex Red, LPC substrate)
# Condition info: 75 μM LPC, Amplex Red fluorescence, ten 1:3 dilutions starting at 30 μM
pIC50: −log10 of the molar value.
Measured parameter: pIC50

Would you please look over these solved cases?
CCOC(=O)N1CCN(c2nccc3nc(NCc4ccccc4Cl)ncc23)CC1 [Compound 114]; > 5.30
COc1ccccc1CNc1ncc2c(N3CCCC3)nccc2n1 [Compound 31]; > 4.52
Clc1ccccc1CNc1ncc2c(NCCCN3CCCC3)nccc2n1 [Compound 17]; > 4.52
COc1ccc(Nc2nccc3nc(NCc4ccccc4)ncc23)cc1 [Compound 3]; > 4.52

pIC50 reading for COC(=O)c1ccc(Nc2nccc3nc(NCc4ccc(Cl)cc4)ncc23)cc1 [Compound 50] : > 4.52

====

# Tested on: recombinant autotaxin (Homo sapiens, UniProt Q13822)
# Assay notes: Autotaxin assay (Amplex Red, LPC substrate)
# Condition info: 75 μM LPC, Amplex Red fluorescence, ten 1:3 dilutions starting at 30 μM
Measured parameter: IC50

Would you please look over these solved cases?
Clc1ccccc1CNc1ncc2c(NCCN3CCCCC3)nccc2n1 [Compound 18]; < 30 µM
Fc1ccc(Nc2nccc3nc(NCc4ccccc4)ncc23)c(F)c1 [Compound 4]; < 30 µM
O=C(CCc1c[nH]cn1)N1CCN(c2nccc3nc(NCc4ccccc4Cl)ncc23)CC1 [Compound 122]; < 5 µM

IC50 reading for Fc1ccc(Nc2nccc3nc(NCc4ccccc4)ncc23)cc1 [Compound 2] : < 30 µM

IC50 reading for CN1CCN(C(=O)C2CCCN(c3nccc4nc(NCc5ccccc5Cl)ncc34)C2)CC1 (stereo not drawn) [Compound 104] : < 30 µM

IC50 reading for COc1ccc(CNc2ncc3c(Nc4ccc(F)c(F)c4)nccc3n2)cc1 [Compound 58] : < 30 µM
